Target: Renin (Homo sapiens)
Sequence (P00797 whole entry): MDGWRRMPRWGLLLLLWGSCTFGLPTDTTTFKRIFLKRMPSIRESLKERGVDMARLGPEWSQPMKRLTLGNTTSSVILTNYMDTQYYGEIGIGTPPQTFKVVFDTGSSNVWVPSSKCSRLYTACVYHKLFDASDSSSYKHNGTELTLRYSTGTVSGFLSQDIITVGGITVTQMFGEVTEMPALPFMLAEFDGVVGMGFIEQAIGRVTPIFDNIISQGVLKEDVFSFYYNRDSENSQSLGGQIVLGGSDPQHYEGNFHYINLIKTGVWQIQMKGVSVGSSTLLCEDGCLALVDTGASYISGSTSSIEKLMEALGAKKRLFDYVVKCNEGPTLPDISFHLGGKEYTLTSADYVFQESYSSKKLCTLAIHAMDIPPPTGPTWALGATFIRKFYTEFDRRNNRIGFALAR
Assay: Inhibitory activity against human plasma renin
Type: cell-free
measured-parameter: IC50

molecule="c1ccc(COCCCOc2ccc([C@H]3CCNC[C@@H]3OCc3ccc4ccccc4c3)cc2)cc1 (racemic)" tested_system="Renin (Homo sapiens)" recorded_result="1.3 µM"
molecule="COc1ccccc1COCCCOc1ccc([C@H]2CCNC[C@@H]2OCc2ccc3cccnc3c2)cc1 (racemic)" tested_system="Renin (Homo sapiens)" recorded_result="0.16 µM"
molecule="c1ccc(COCCCOc2ccc([C@H]3[C@H](Cn4cncn4)CNC[C@@H]3OCc3ccc4ccccc4c3)cc2)cc1 (racemic)" tested_system="Renin (Homo sapiens)" recorded_result="0.19 µM"
molecule="COc1ccccc1COCCCOc1ncc([C@H]2CCNC[C@@H]2OCc2cc(OC)c3ccccc3c2OC)cn1 (racemic)" tested_system="Renin (Homo sapiens)" recorded_result="0.16 µM"
